Assay: yeast display, Sf9 membrane polyspecificity reagent, FACS + sequencing; frameworks hold sequencing errors
Measured Endpoint: polyreactivity (PSR sort gate)

1) QVQLVESGGRLVQAGGSLRIICAASGIIFFHYAMGWYRQAPGKERELVAAITCSGGSTYYADSVKGRFTISRDKAKNTVYLHMNSLKPEDTAVYYGNAVLHRRLYDYWGQGTQVTVSS high polyreactivity
2) QVQLVESGGGLVQAGGSLRLSCAASGLTFVNYAMGWYRQAPGKERELVATISKTGGSTYYADSVKGRFTISRDNAKNTVYLQMNSLKPEDTAVYYCAARRARRSGYYYWGQGTQVTVSS high polyreactivity
3) QVQLVESGGGLVQAGGSLRLSCAASGLIFPYYVMGWYRQAPGKERELVAAISVSGGNTYYADSVKGRFTISRDNAKNTVYLQMNSLKPEDTAVYYCAADHYRGSYDYWGQGTQVTVSS high polyreactivity
4) QVQLVESGGGLVQAGGSLRLSCSASGITFIYYMGWYIQAPGKERELVAAITWSGGSTYYADSVKGRFTISRDNAKNTVYLQMNSLKPEDTAVYYCAAVRRAEEYDYCGQGTQVTVSS low polyreactivity
5) QVQLVESGGGLVQAGGSLRLSCAASGRILRYYAMGWYRQAPGKELELVASISRGGSTYYADSVKGRFTISRDNAKNTVYLQMNSLKPEDTAVYYCATEVRRSTREFGYWGQGTQVTVSS high polyreactivity
6) QVQLVESGGGLVQAGGSLRLSSASSGSIIFLYTMGWYRQAPGKERELVAAIDSVGSTNYADSVKGRFTISRDNAKNTVYLHMNSLKPEDTAVYYCNAYFWVGLYEYDYWGQGTQVTVSS low polyreactivity
7) QVQLVESGGGLVQAGGSLRLSCAASGLTFRYYAMGWYRQAPGKERELVAAITRGARTNYADSVKGRFTISRDNAKNTVYLQMNSLKPEDTAVYYCNAGFTGLHRYGYWGQGTQVTVSS high polyreactivity
8) QVQLVESGGGLVQAGGSLRLSCAASGSIFQYNAMGWYRQAPGKERELVAAISSRGGITYYADSVKGRFTISRDNAQNTVYLQMNSLKPEDTAVYYCAAEAYYSEVRWYEYWGQGTQVTVSS high polyreactivity
9) QVQHVESGGGLVQAGGSLRLSCAPSGSTFYNNAMGWYRQAPGKERELVAAITRSGGSTYYADSVKGRFTISRDNAKNTVYLQMNSLKPEDTEVYYCNKYGYKGGVGYDYWGQGTQVTVSS high polyreactivity
10) QFQLVESGGGLVQAGGSLRLSCAASGITFGDNAMGWYRQAPGKERELVAAISWSGDRTFYADSVKGRFTISRDNAKNTVYLQMNSLKPEDTAVYYCNAEIGWHNEGRLSTYDYWGQGTQVTVSS low polyreactivity
11) QVQLVESGGGLVQAGGSLRLSCAASGNTFWKYAMGWYRQAPGKERELVAAITRGGARTYYADSVKGRFTISRDNAKYSVYLQINSLNPEDTAVYYCAAQYWTEYGSWGQGTEVTVSS low polyreactivity

---

Assay: yeast display, Sf9 membrane polyspecificity reagent, FACS + sequencing; frameworks hold sequencing errors
Measured Endpoint: polyreactivity (PSR sort gate)

1) QVQLVESGGGLVQAGGSLRLSCAASGRTFRGNDMGWYRQAPGKEWELVATITRNGGSTRYADSVKGRFTISRDNAKNTVYLQMNSLKPEDTAVYYCNARSRYFGYDYWGQGTQVTVSS high polyreactivity
2) QVQLVESGGGLVQAGGSLRLSCAASGSILWQYAMGWSRQAPGKERELVAAITYSGASTHYADSVKGRFTISRDNAKNTVYLQMNRLKPEDTAVYYCAAGYWYRYAALRYDHWGQGTQVTVSS low polyreactivity
3) QVQLVESGGGLVQAGGSLRLSCAASGGIFRNYAMGWYRQAPGKERELVARISSAGSTNYADSVKGRFTNSRDNAKNTVYLLMNSLKPEDTAVYYCAKGWRSWAEEGHDYWGQGTQVTVSS low polyreactivity
4) QVQLVESGGGLVQAGGSLRLSFAASGLIFGYNAMGWYRQAPGTERELVAAISRRGTSTYYADSVKGRFTISRDNAKNTVYLQMNSLKPEDTAVYYCATYGVNPPGVEEYNYWGQGTQVTVSS high polyreactivity
5) QVQLVESGGGLVQAGVSLRLSCAASGFIFFPYVMGWYRQAPGKERELVARNTSGGGSTYYADSVKGRFTISRDNAKNTVYIQMNSLKPEDTAGYYCKARRIWYQSTFNYWGQGTQVTVSS high polyreactivity
